observationType: melting point (°C)
State the answer as a number, implicitly in °C.

Some solved cases for reference:
{"querySmiles": "CCCC#N", "recordedResult": -112}
{"querySmiles": "Nc1ccc(Cl)cc1Cl", "recordedResult": 63.5}

Kindly review the next molecule as well.
Ask: Retrieve melting point measured for COc1cc(OC)nc(Sc2cccc(Cl)c2C(=O)O)n1 and print it.
Result: 150

---

Entries annotated with measured log10 vapour pressure (mmHg)

Example results:
{"compound": "CC(C)CN", "log10 vapour pressure (mmHg)": 2.14}
{"compound": "O=[N+]([O-])c1ccccc1", "log10 vapour pressure (mmHg)": -0.611}
{"compound": "CCCCOC(=O)COc1cc(Cl)c(Cl)cc1Cl", "log10 vapour pressure (mmHg)": -4.82}
{"compound": "CC(Cl)(Cl)C(=O)O", "log10 vapour pressure (mmHg)": -0.821}
{"compound": "CCOC(=O)CCN(Cc1ccccc1)SN(C)C(=O)O/N=C(/C)SC", "log10 vapour pressure (mmHg)": -7.46}

Ask: Hello, please tell me recorded log10 vapour pressure (mmHg) for this one: CCCCC(C)Br (centres undefined)
Result: 0.86

Ask: Kindly indicate its recorded log10 vapour pressure (mmHg). Item: CCCCCCCCCCCCCCN
Result: -3.01

Ask: Please supply the value of reported log10 vapour pressure (mmHg) for the item CCCCCCCCCCCC
Result: -0.87

Ask: # return recorded log10 vapour pressure (mmHg) for input CCCN(CCOc1c(Cl)cc(Cl)cc1Cl)C(=O)n1ccnc1
Result: -5.95

Ask: Read off the recorded log10 vapour pressure (mmHg) for CCCCC(CC)COC(=O)CCCCC(=O)OCC(CC)CCCC (centres undefined)
Result: -6.07

Ask: Respond only with log10 vapour pressure (mmHg) recorded for CCC(CC)CC
Result: 1.76

Ask: Supply log10 vapour pressure (mmHg) value. Item: CC(O)C(=O)O (centres undefined)
Result: -1.09

Ask: Input C[Si]1(C)O[Si](C)(C)O[Si](C)(C)O[Si](C)(C)O[Si](C)(C)O1 , output reported log10 vapour pressure (mmHg).
Result: -0.699

Ask: # return recorded log10 vapour pressure (mmHg) for input C[Si](C)(C)O[Si](C)(C)O[Si](C)(C)O[Si](C)(C)O[Si](C)(C)C
Result: -0.991

All values here come from the OPERA property sets (Mansouri et al. 2018).
